Target: T1, AIM2FL (Homo sapiens, UniProt O14862 1-343)
T1 sequence: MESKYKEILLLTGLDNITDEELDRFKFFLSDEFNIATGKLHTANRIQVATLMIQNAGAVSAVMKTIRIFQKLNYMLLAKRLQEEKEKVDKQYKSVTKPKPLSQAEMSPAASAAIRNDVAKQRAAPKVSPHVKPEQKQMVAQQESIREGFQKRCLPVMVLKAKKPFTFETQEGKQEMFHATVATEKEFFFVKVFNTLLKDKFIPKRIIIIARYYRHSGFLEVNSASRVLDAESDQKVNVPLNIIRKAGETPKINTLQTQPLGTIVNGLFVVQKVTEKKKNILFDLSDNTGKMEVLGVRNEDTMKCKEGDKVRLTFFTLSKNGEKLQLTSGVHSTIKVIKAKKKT
Experiment: fluorescence anisotropy; 160 mM KCl (60 mM KCl for IFI16HinAB); buffer, pH and temperature not given in the available text
Conditions: protein: recombinant; label: FAM
pKd: −log10 of the molar value.
Measured Quantity: pKd

>>> experimental_value("24-bp dsDNA (dsDNA) DNA 1: TAAGACACGATGCGATAAAATCTG DNA 2: CAGATTTTATCGCATCGTGTCTTA")
7.10
